- TEST_SYSTEM: EHMT1 (Homo sapiens)
- Sequence (Q9H9B1 whole entry, species assumed): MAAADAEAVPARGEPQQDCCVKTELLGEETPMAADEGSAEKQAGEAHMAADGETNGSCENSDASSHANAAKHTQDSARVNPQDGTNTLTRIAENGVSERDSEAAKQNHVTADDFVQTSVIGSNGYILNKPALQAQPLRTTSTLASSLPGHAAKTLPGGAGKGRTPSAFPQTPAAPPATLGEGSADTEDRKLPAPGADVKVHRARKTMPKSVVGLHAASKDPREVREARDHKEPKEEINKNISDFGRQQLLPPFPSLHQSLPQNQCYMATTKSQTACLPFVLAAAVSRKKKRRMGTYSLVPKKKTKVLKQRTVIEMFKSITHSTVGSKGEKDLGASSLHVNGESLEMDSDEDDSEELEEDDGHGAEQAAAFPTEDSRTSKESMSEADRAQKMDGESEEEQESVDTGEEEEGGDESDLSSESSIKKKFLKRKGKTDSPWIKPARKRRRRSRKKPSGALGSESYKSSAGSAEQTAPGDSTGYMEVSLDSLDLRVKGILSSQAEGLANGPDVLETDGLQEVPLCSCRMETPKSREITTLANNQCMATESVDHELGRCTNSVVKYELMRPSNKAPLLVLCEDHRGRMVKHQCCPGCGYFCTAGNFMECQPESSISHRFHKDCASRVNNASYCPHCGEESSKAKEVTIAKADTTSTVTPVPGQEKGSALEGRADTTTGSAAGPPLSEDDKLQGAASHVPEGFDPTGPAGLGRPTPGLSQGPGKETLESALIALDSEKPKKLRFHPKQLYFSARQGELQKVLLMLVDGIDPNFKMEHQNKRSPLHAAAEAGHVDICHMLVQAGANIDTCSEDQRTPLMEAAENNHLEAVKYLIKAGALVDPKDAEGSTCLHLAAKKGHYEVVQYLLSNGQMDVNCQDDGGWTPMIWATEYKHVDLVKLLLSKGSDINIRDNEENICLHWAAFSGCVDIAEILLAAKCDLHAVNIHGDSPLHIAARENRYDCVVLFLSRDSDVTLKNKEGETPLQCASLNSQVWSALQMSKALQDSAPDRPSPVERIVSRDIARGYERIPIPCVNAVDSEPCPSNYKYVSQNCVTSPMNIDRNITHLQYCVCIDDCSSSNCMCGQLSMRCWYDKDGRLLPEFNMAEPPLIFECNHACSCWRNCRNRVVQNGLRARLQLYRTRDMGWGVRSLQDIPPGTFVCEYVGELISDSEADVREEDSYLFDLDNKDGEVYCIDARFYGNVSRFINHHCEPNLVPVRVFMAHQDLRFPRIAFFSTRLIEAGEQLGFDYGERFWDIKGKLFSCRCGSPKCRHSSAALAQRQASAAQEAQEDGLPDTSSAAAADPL
- RUN_DESCRIPTION: EHMT1 enzyme assay on peptide substrate (EHMT1 PEP)
- Format: biochemical
- ASSAY_CONDITIONS: Table III; read-out: EHMT1 PEP (IC50 μM)
IC50 values, listed per item

[
  {
    "COMPOUND": "CNc1cc(C)nc(Nc2ccc(OC)c(OC[C@H]3C[C@H](N(C)C)C3)c2)n1",
    "IC50": "1 to 10 µM"
  }
]

Value of measured IC50 for the entry `COc1ccc(Nc2ccc3nn(C)cc3c2)cc1OCCCN1CCCC1` : > 10 µM

Value of measured IC50 for the entry `COc1ccc(Nc2nccc(NCC(F)(F)F)n2)cc1OCCCN1CCCC1` : 0.1 to 1 µM

For record CNc1ccnc(Nc2cccc(C(C)OCCN3CCCC3)c2)n1 (stereo not drawn) the listed IC50 is > 10 µM

So for `CNc1nc(Nc2ccc(OC)c(OCCCN3CCCC3)c2)nc2ccccc12` , the logged IC50 turned out to be < 0.1 µM

The reported IC50 of the compound `CNc1ccnc(Nc2ccc(OC)c(OCc3cc(C4CC4)on3)c2)n1` was > 10 µM

Sample CCOc1ccc(Nc2nccc(NC)n2)cc1OCC1CCN(C)C1 (stereo not drawn) ; IC50 observed: > 10 µM

Item: CNc1ccnc(Nc2ccc(OC)c(OCCCN3CCC(OC)C3)c2)n1 (stereo not drawn) | IC50: < 0.1 µM

Just so you know, measured IC50 for `CNc1nc(C)cc(Nc2cc(OCCCN3CCCC3)c(OC)cn2)n1` came out at > 10 µM

The value of IC50 measured for the compound `COc1ccc(Nc2nccc(NCC3CCOCC3)n2)cc1NCCCN1CCCC1` turned out to be 0.1 to 1 µM

Consider CNc1cc(C)nc(Nc2ccc(OC)c(COC3CCN(C)C3)c2)n1 (stereo not drawn) . Its measured IC50 is 0.1 to 1 µM

CNc1ccnc(Nc2ccc(OC)c(OCC3CCN(C4CC4)C3)c2)n1 (stereo not drawn) yielded IC50 of < 0.1 µM

Looking up `COc1ccc(Nc2cccc3cn(C)nc23)cc1OCCCN1CCCC1` , I found its IC50 recorded as > 10 µM

The recorded IC50 for CNc1ccnc(Nc2ccc(OC)c(OC[C@@H](O)CN3CCCC3)c2)n1 (single isomer, unassigned) [Compound 377] is > 10 µM

Lookup result for `CCn1nc(Nc2nccc3[nH]ccc23)cc1COCCN1CCCC1` ; measured IC50: 1 to 10 µM

Record summary for `CNc1cc(C)nc(Nc2ccc(OC)c(OC3CCN(CC4CC4)CC3)c2)n1` : reported IC50 = > 10 µM

IC50 recorded for this compound, `CNc1ccnc(N[C@@H]2CCC[C@H](OCCCN3CCCC3)C2)n1` , is > 10 µM

Kindly note the recorded IC50 for `CNc1cc(C)nc(Nc2ccc(OC)c(O[C@H]3C[C@@H](CN(C)C)C3)c2)n1` , which is > 10 µM

###

- TEST_SYSTEM: human EHMT2 913-1193 (Homo sapiens)
- Construct: recombinant purified human EHMT2 913-1193, Viva; purchased Viva
- Sequence (Q96KQ7 913-1193): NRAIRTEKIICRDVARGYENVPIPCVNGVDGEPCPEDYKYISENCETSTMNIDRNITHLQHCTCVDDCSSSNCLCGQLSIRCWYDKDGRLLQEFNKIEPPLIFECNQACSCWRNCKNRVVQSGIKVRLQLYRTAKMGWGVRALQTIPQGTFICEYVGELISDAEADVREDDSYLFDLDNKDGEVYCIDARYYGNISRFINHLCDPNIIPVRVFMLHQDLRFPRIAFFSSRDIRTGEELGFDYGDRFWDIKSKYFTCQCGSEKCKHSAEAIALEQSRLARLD
- RUN_DESCRIPTION: EHMT2 enzyme assay on histone peptide substrate (EHMT2 PEP)
- Type: biochemical
- ASSAY_CONDITIONS: recombinant human EHMT2 913-1193, histone H3 1-15 peptide, balanced conditions; read-out: EHMT2 PEP (IC50 μM)
As shown below, each of these compounds has a reported IC50 value.

Here is how some compounds turned out for IC50.
[
  {
    "COMPOUND": "c1nc(NC2CCNCC2)ncc1OCC1CCN(C2CC2)C1 (stereo not shown)",
    "ENDPOINT_LABEL": "IC50",
    "TEST_RESULT": "> 10 µM"
  },
  {
    "COMPOUND": "CNc1ccnc(Nc2cc(OCCCN3CCCC3)c3[nH]ncc3c2)n1",
    "ENDPOINT_LABEL": "IC50",
    "TEST_RESULT": "1 to 10 µM"
  },
  {
    "COMPOUND": "CCN1CC(COc2cc(Nc3cccc4nncn34)ncc2OC)C1",
    "ENDPOINT_LABEL": "IC50",
    "TEST_RESULT": "> 10 µM"
  },
  {
    "COMPOUND": "CNc1cc(C)nc(Nc2ccc(OC)c(OC3CCN(C4CC4)CC3)c2)n1",
    "ENDPOINT_LABEL": "IC50",
    "TEST_RESULT": "> 10 µM"
  },
  {
    "COMPOUND": "CNc1nc(C2CCNCC2)c2cc(OC)c(OCCCN3CCCC3)cc2n1",
    "ENDPOINT_LABEL": "IC50",
    "TEST_RESULT": "< 0.1 µM"
  },
  {
    "COMPOUND": "CNc1ccnc(Nc2cc(OCCCN3CCCC3)c3cn[nH]c3c2)n1",
    "ENDPOINT_LABEL": "IC50",
    "TEST_RESULT": "0.1 to 1 µM"
  },
  {
    "COMPOUND": "CNc1ccnc(N[C@@H]2CC[C@H](N)C2)n1",
    "ENDPOINT_LABEL": "IC50",
    "TEST_RESULT": "> 10 µM"
  },
  {
    "COMPOUND": "C/C=C/C(=O)Nc1cc(OCCCN2CCCC2)c(OC)cn1",
    "ENDPOINT_LABEL": "IC50",
    "TEST_RESULT": "> 10 µM"
  }
]

IC50 reported for this compound COc1ccc(NC2CCCNC2)cc1OCCCN1CCCC1 (stereo not shown) : 1 to 10 µM

The measured IC50 associated with `CNc1cc(C)nc(Nc2cnc(OC)c(OC[C@@H]3CCN(C4CC4)C3)c2)n1` reads < 0.1 µM

Value of measured IC50 for the entry COc1cc(NC2CCCNC2)ccc1OCCCN1CCCC1 (stereo not shown) : 1 to 10 µM

Entry `CNc1cc(C)nc(Nc2ccc(OC)c(OCCCN(C)C3CCC3)c2)n1` ; IC50 = 0.1 to 1 µM

The value of IC50 measured for the compound `CCN1CC(COc2cc(Nc3nccc4[nH]ccc34)ncc2OC)C1` turned out to be < 0.1 µM

Lookup result for CNc1cc(C)nc(Nc2ccc(OC)c(OCCC3CCN(C)C3)c2)n1 (stereo not shown) ; measured IC50: 1 to 10 µM

Measured IC50, `CNc1ccnc(Nc2ccc(OC)c(OCc3ncn(C4CC4)n3)c2)n1` : > 10 µM

Query CNc1cc(C)nc(Nc2ccc(OC)c(OCC3CN(C(C)C)C3)c2)n1 [Compound 559] yields IC50 of 0.1 to 1 µM

Quick note, IC50 for `CCN1CC(COc2cc(Nc3cc(NC)ncc3F)ncc2OC)C1` landed at 1 to 10 µM

Reported IC50 for `CCc1ccc(Nc2nc(C)cc(NC)n2)cc1OCCCN1CCCC1` was 0.1 to 1 µM

Input `CNc1nc(C2CCN(CCO)CC2)c2cc(OC)c(OCCCN3CCCC3)cc2n1` . Output IC50: < 0.1 µM
